# System: up to 32 different microorganisms
# method-description: in vitro antibacterial activity (MIC), agar dilution on Brain Heart Infusion (BHI) agar with Steers replicator
# Type: cell-based
# experimental-setup: organism code QQ; unit assumed
# MIC per entry

Some solved cases for reference:
[
  {
    "compound": "CC[C@H]1OC(=O)[C@H](C)C(=O)[C@H](C)[C@@H](O[C@@H]2O[C@H](C)C[C@H](N(C)C)[C@H]2O)[C@@](C)(OCC=Cc2cnc3ccccc3c2)C[C@@H](C)C(=O)[C@H](C)[C@H]2N(N)C(=O)O[C@]12C",
    "MIC": "> 100 µg/mL"
  },
  {
    "compound": "CC[C@H]1OC(=O)[C@H](C)C(=O)[C@H](C)[C@@H](O[C@@H]2O[C@H](C)C[C@H](N(C)C)[C@H]2O)[C@@](C)(OCC#CBr)C[C@@H](C)C(=O)[C@H](C)[C@H]2NC(=O)O[C@@]21C",
    "MIC": "> 100 µg/mL"
  },
  {
    "compound": "CCC1OC(=O)C(C)C(=O)C(C)C(OC2OC(C)CC(N(C)C)C2O)C(C)(OCC=Cc2ccc3cc(OCCBr)ccc3c2)CC(C)C(=O)C(C)C2NC(=O)OC12C (centres unmarked)",
    "MIC": "> 100 µg/mL"
  }
]

## Task Supply reported MIC belonging to this compound: CCC1OC(=O)C(C)C(=O)C(C)C(OC2OC(C)CC(N(C)C)C2O)C(C)(OCC=Cc2cccc3c([N+](=O)[O-])cccc23)CC(C)C(=O)C(C)C2NC(=O)OC12C (centres unmarked)
## Result > 100 µg/mL

## Task Supply reported MIC belonging to this compound: `CC[C@H]1OC(=O)[C@H](C)C(=O)[C@H](C)[C@@H](O[C@@H]2O[C@H](C)C[C@H](N(C)C)[C@H]2O)[C@@](C)(OCCNOCc2ccc([N+](=O)[O-])cc2)C[C@@H](C)C(=O)[C@H](C)[C@H]2NC(=O)O[C@@]21C`
## Result 100 µg/mL

The values you see were collected from patent USRE39591E1.
